Provenance of the data: PubChem BioAssay (NCI)

PROCEDURE_SUMMARY: NCI Yeast Anticancer Drug Screen. Data for the bub3 strain (AID 167)
RUN_PARAMETERS: S. cerevisiae bub3 mutant strain, at 50.0 µM
Method: Growth inhibition of yeast strains with defined genetic alterations is measured as a screen for potential anti-cancer activity. Selected strains with alterations in DNA damage repair or cell cycle control were exposed to compounds and growth inhibition was measured relative to vehicle treated controls. The strain used in this assay is bub3
This is part of a sample that, as a whole, favours compounds with a hit. Of some 79,000 tested, about 15% had one in any assay. Activity calls are given as the source filed them. Rule as the data show it: active = growth inhibition above about 70%; inactive = the rest.
In this exercise, the only acceptable responses are YES = active, NO = inactive

Prompt line: Per the records of this test, what outcome belongs to CC(=O)Nc1ccc2c(Br)ccc3c2c1CC3 ?
Response line: NO

Prompt line: Cn1cc(/C=C\C(=O)O)c2ccccc21 ?
Response line: NO

Prompt line: Nc1ncnc2c1ccn2C1OC2COP(=O)(O)OC2C1O (stereo unspecified) ?
Response line: NO

Prompt line: CCOC(=O)c1cc(=O)[nH]c2ccc(OC)cc12 ?
Response line: NO

Prompt line: Cc1ccc(OCC2OC(n3cnc4nc(Nc5ccc(Cl)c(Cl)c5)nc(Cl)c43)CC2Oc2ccc(C)cc2)cc1 (stereo unspecified) ?
Response line: NO

Prompt line: N#CC(c1ccccc1)N(CCc1ccccc1)C(=O)c1ccccc1 (stereo unspecified) ?
Response line: NO

Prompt line: CCC1(COC(NC(=O)c2ccccc2)(C(F)(F)F)C(F)(F)F)COC1 ?
Response line: NO

Prompt line: COc1ccc(Br)cc1/C=N/N=C/c1cc(Br)ccc1OC ?
Response line: NO

Prompt line: CC1CC(C)NC(=O)N1 (stereo unspecified) ?
Response line: NO

Prompt line: CCOC(=O)c1cccc(Cl)c1C(=O)O ?
Response line: NO

Prompt line: Clc1ccc(N=Cc2ccc(C=Nc3ccc(Cl)c(Cl)c3)cc2)cc1Cl ?
Response line: NO

Prompt line: CC(C)=CCNc1ncnc2c1ncn2CCC#N ?
Response line: NO

Prompt line: N#Cc1c(-c2ccccc2)cc(-c2cccs2)c(C#N)c1N ?
Response line: NO

Prompt line: Cn1cnc2cc3c(cc2c1=O)nc1n3CCCC1 ?
Response line: NO

Prompt line: CCOC(=O)Cc1csc2[n+]1C(=O)/C(=C/c1cccc(OC)c1O)S2 ?
Response line: NO

Prompt line: COc1cc2c(cc1OC)C1Cc3ccc(OC)c(OC)c3C[N+]1([O-])CC2 (stereo unspecified) ?
Response line: NO

Prompt line: Cc1ccc2nc(Nc3ccc(Cl)cc3)cc(C(O)C3CCCCN3)c2c1 (stereo unspecified) ?
Response line: YES

Prompt line: CCOC(=O)C1=C(C(=O)c2ccc(OC)cc2)C(c2ccc(OC)c(OC)c2)C(C(=O)c2ccc(OC)cc2)=C(C(=O)OCC)N1 ?
Response line: NO

Prompt line: NC1C(O)OCC(O)C1O (stereo unspecified) ?
Response line: NO

Prompt line: Brc1cccc(CCOCc2ccccc2)c1 ?
Response line: NO

Prompt line: O=C1C(=S)Nc2cccc(F)c21 ?
Response line: NO

Prompt line: O/N=C/c1cc2c(cc1Br)OCO2 ?
Response line: NO

Prompt line: CSc1ccc2c(=O)c(C(=O)O)c[nH]c2c1 ?
Response line: NO

Prompt line: O=C(NN1C(=O)CS(=O)(=O)C1c1ccc(C(F)(F)F)cc1)c1ccncc1 (stereo unspecified) ?
Response line: NO

Prompt line: CC(=O)NOCC1NC(=O)C(CONC(C)=O)NC1=O (stereo unspecified) ?
Response line: NO

Prompt line: CCN1C(=O)N(C)C(O)c2c1nc1ccccn1c2=O (stereo unspecified) ?
Response line: NO

Prompt line: COC(=O)c1nc(N)nc(C(=O)OC)c1C(=O)c1cccs1 ?
Response line: NO

Prompt line: CC1=CC(=C(c2cc(C)c(O)c(C(=O)O)c2)c2cc(C)c(O)c(C(=O)O)c2)C=C(C(=O)O)C1=O ?
Response line: NO

Prompt line: O=C(O)CCSSCCC(=O)O ?
Response line: NO

Prompt line: O=C(O)Cc1nc(Cl)ccc1Cl ?
Response line: NO

Prompt line: Cc1ccc(S(=O)(=O)Oc2c(Cl)c(Cl)c(Cl)c(Cl)c2Cl)cc1 ?
Response line: NO

Prompt line: COc1cc2ccccc2ccc1=O ?
Response line: NO

Prompt line: Cc1ccc(S(=O)(=O)NNCCC#N)cc1 ?
Response line: NO

Prompt line: COc1ccc2nc(CC(C)C)c3c(c2c1)-c1ccccc1C3=O ?
Response line: NO

Prompt line: COc1ccc(C(=O)CC(=O)CCC(=O)Nc2ccc(Cl)cc2Cl)cc1 ?
Response line: NO

Prompt line: COCCCNC(=O)C1=CCCN(C)C1 ?
Response line: NO
